Every entry's value here was drawn from ChEMBL document CHEMBL3817802.

- experiment_notes: Oral bioavailability in Sprague-Dawley rat at 1 mg/kg by LC/MS/MS analysis
- Type: ADME, organism-based
- details: in vivo
assay_readout: bioavailability (%)

1) COc1ccc(N2CCN(c3c(C)c(C)c4c(c3C)C(=O)C(C)(C)O4)CC2)cc1 ... 42.3

----------
- target_or_test_system: CYP2C9 (Homo sapiens, UniProt P11712)
- Sequence (P11712 whole entry): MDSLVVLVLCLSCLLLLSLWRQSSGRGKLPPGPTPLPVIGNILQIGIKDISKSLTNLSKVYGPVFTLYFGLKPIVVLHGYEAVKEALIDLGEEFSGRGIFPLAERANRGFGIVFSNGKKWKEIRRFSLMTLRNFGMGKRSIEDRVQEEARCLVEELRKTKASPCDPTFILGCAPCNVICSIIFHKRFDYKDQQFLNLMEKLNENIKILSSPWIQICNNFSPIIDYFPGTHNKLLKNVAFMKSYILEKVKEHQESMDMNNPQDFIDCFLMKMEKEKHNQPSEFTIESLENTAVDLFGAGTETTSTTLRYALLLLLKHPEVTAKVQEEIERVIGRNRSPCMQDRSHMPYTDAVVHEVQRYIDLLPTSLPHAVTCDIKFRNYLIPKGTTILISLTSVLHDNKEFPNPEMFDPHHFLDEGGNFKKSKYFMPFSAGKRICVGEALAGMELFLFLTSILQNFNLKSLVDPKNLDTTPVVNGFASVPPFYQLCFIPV
- experiment_notes: Inhibition of CYP2C9 in human liver microsomes at 10 uM incubated for 30 mins by HPLC analysis
- Assay type: ADME
assay_readout: inhibition at 0.5 h, 10 µM (%)

1) COc1ccc(N2CCN(c3c(C)c(C)c4c(c3C)C(=O)C(C)(C)CO4)CC2)cc1 ... 42.1
2) COc1ccc(N2CCN(c3c(C)c(C)c4c(c3C)CC(C)(C)O4)CC2)cc1 ... -0.9
3) COc1ccc(N2CCN(c3c(C)c(C)c4c(c3C)C(=O)C(C)(C)O4)CC2)cc1 ... 83.4
